// provenance: ChEMBL document CHEMBL1156748

# protocol: Metabolic stability in human microsomes assessed as half life
# Format: ADME, Microsome
endpoint: half-life (min)

a. CCn1ncc2c(N3CC4CCC(C3)O4)nc(-c3ccc(NC(=O)Nc4ccc(N(C)CCN(C)C)cc4)cc3)nc21
b. CCn1ncc2c(N3CC4CCC(C3)O4)nc(-c3ccc(NC(=O)Nc4cccnc4)cc3)nc21
Looking only at measured half-life, which entry is lower, a or b ? // return label of chosen record
b
(b: 4 min, a: 14 min)

----------
# protocol: Selectivity ratio, IC50 for PI3Kalpha to IC50 for human FLAG-tagged mTOR
endpoint: Ratio IC50

Take a look at these entries with their results.
CCn1ncc2c(N3CC4CCC(C3)O4)nc(-c3ccc(NC(=O)Nc4ccc(C(=O)NN5CCCC5)cc4)cc3)nc21	586
CCn1ncc2c(N3CC4CCC(C3)O4)nc(-c3ccc(NC(=O)Nc4ccc(C(=O)NN(C)C)cc4)cc3)nc21	350

a. CCn1ncc2c(N3CC4CCC(C3)O4)nc(-c3ccc(NC(=O)Nc4ccc(N5CCN(C)CC5)nc4)cc3)nc21
b. CCn1ncc2c(N3CC4CCC(C3)O4)nc(-c3ccc(NC(=O)Nc4ccc(CN)cc4)cc3)nc21
c. CCNC(=O)Nc1ccc(-c2nc(N3CC4CCC(C3)O4)c3cnn(CC)c3n2)cc1
d. CCn1ncc2c(N3CC4CCC(C3)O4)nc(-c3ccc(NC(=O)NCCN(C)C)cc3)nc21
Output the entries ranked by Ratio IC50 from maximum down to minimum. Field: ranking. Enter the labels in the order requested.
c, a, b, d
(c: 2230, a: 275, b: 95, d: 16)

A. CCn1ncc2c(N3CC4CCC(C3)O4)nc(-c3ccc(NC(=O)Nc4ccc(N5CCCC5)cc4)cc3)nc21
B. CCn1ncc2c(N3CC4CCC(C3)O4)nc(-c3ccc(NC(=O)Nc4ccc(OCCN5CCOCC5)nc4)cc3)nc21
For this pair, A and B , which shows a numerically higher Ratio IC50? Pick one; state its label.
B

1. CCn1ncc2c(N3CC4CCC(C3)O4)nc(-c3ccc(NC(=O)Nc4ccccc4)cc3)nc21
2. CCn1ncc2c(N3CC4CCC(C3)O4)nc(-c3ccc(NC(=O)Nc4ccc(CO)cc4)cc3)nc21
Compare Ratio IC50: is it lower for 1 or for 2 ? Which one? Tell me its label.
1
(1: 212, 2: 335)

----------
# protocol: Selectivity ratio, IC50 for PI3Kalpha to IC50 for human FLAG-tagged mTOR
endpoint: Ratio IC50

CCn1ncc2c(N3CC4CCC(C3)O4)nc(-c3ccc(NC(=O)Nc4ccc(CN(C)C)cc4)cc3)nc21	239
CCn1ncc2c(N3CC4CCC(C3)O4)nc(-c3ccc(NC(=O)Nc4ccc(N(C)C)nc4)cc3)nc21	282
CN1CCN(c2ccc(NC(=O)Nc3ccc(-c4nc(N5CC6CCC(C5)O6)c5cnn(CC(F)(F)F)c5n4)cc3)cc2)CC1	237
